Target: Bovine Carbonic Anhydrase-II (Bos taurus, UniProt P00921)
Construct: pure bovine erythrocyte CA-II; from tissue; host or cells: bovine erythrocytes
Sequence (P00921 whole entry): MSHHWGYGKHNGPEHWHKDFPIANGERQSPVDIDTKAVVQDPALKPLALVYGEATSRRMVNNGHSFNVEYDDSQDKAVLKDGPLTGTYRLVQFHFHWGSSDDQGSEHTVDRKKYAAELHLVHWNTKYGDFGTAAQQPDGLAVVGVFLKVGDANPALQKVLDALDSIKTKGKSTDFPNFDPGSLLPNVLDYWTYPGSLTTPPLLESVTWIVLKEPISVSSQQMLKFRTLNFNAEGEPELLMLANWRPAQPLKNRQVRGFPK
Test: Kinetics studies (Lineweaver-Burk, Dixon plots) against Bovine Carbonic Anhydrase-II
Format: biochemical
Conditions: from secondary replots / Dixon plot; read-out: Ki
Method: FIG. 2B depicts the double reciprocal plot for Ki determination which is between Slope Vs Inhibitor Conc. FIG. 3B depicts the double reciprocal plot for Ki determination which is between Slope Vs Inhibitor Conc. Kinetics studies were performed for each analogue. […] The Grafit version 7.0 was used for the construction of Lineveawer-Burk plots and their secondary replots.
Just a reminder that ties go to 0 (no): only Ki strictly below 100 nM counts as 1 (yes).

Examples with answers:
NS(=O)(=O)c1ccc(NC(=S)NC(=O)c2cccc([N+](=O)[O-])c2)cc1; 1 (yes)
NS(=O)(=O)c1ccc(NC(=S)NC(=O)c2ccc([N+](=O)[O-])cc2)cc1; 0 (no)
NS(=O)(=O)c1ccc(NC(=S)NC(=O)Cc2ccccc2)cc1; 1 (yes)

Does NS(=O)(=O)c1ccc(NC(=S)NC(=O)C2CCCO2)cc1 (stereo not drawn) have Ki strictly under 100 nM?
1 (yes)

Try the molecule `COc1cc(OC)cc(C(=O)NC(=S)Nc2ccc(S(N)(=O)=O)cc2)c1`
0 (no)

Next molecule up: `NS(=O)(=O)c1ccc(NC(=S)NC(=O)c2cccc(Cl)c2)cc1`
0 (no)

Record: `NS(=O)(=O)c1ccc(NC(=S)NC(=O)c2ccc(Cl)cc2[N+](=O)[O-])cc1`
1 (yes)

Field entry: `Cc1cccc(C(=O)NC(=S)Nc2ccc(S(N)(=O)=O)cc2)c1`
1 (yes)

Further, for `Cc1ccccc1C(=O)NC(=S)Nc1ccc(S(N)(=O)=O)cc1` ?
1 (yes)

---

Recorded IC50 values for a group of molecules are listed next.
molecular target: Bovine Carbonic Anhydrase-II (bovine erythrocyte CA-II) (Bos taurus); construct: pure bovine erythrocyte CA-II; from tissue; host or cells: bovine erythrocytes; assay: Bovine carbonic anhydrase-II inhibition, 4-nitrophenyl acetate spectrophotometric assay; assay type: biochemical; settings: 4-nitrophenyl acetate 0.7 mM, pH 7.4, 15 min preincubation; read-out: IC50 ± S.E.M. BCA-II
Sequence (P00921 whole entry): as above
Report the figure in nM without appending any unit label.

Take a look at these entries with their results.
NS(=O)(=O)c1ccc(NC(=S)NC(=O)c2ccc(Cl)cc2)cc1; 160
COc1cc(OC)cc(C(=O)NC(=S)Nc2ccc(S(N)(=O)=O)cc2)c1; 110
NS(=O)(=O)c1ccc(NC(=S)NC(=O)c2ccc([N+](=O)[O-])cc2)cc1; 130
NS(=O)(=O)c1ccc(NC(=S)NC(=O)c2ccc(Cl)cc2Cl)cc1; 60
NS(=O)(=O)c1ccc(NC(=S)NC(=O)c2ccc(Cl)cc2[N+](=O)[O-])cc1; 280
COc1cc(C(=O)NC(=S)Nc2ccc(S(N)(=O)=O)cc2)cc(OC)c1OC; 60
NS(=O)(=O)c1ccc(NC(=S)NC(=O)c2ccccc2[N+](=O)[O-])cc1; 60
NS(=O)(=O)c1ccc(NC(=S)NC(=O)c2ccc(F)cc2)cc1; 130

Attention now turns to another entry.
Using the record for `Cc1cccc(C(=O)NC(=S)Nc2ccc(S(N)(=O)=O)cc2)c1` , report its IC50.
90

---

target: Bovine Carbonic Anhydrase-II (Bos taurus); construct: pure bovine erythrocyte CA-II; from tissue; host or cells: bovine erythrocytes; experiment: Kinetics studies (Lineweaver-Burk, Dixon plots) against Bovine Carbonic Anhydrase-II; type: biochemical; parameters: unit not given here; settings: apparent Vmax with inhibitor (0.2-0.00625 μM)
In this section we review reported Vmax app values for a set of molecules.

// solved cases for Vmax app follow
COc1cccc(C(=O)NC(=S)Nc2ccc(S(N)(=O)=O)cc2)c1; 35.21
NS(=O)(=O)c1ccc(NC(=S)NC(=O)c2ccc(Cl)cc2)cc1; 18.45

Name the reported Vmax app value associated with the molecule `Cc1cccc(C(=O)NC(=S)Nc2ccc(S(N)(=O)=O)cc2)c1`
10.61

Another: `NS(=O)(=O)c1ccc(NC(=S)NC(=O)c2cccc(Cl)c2)cc1`
25.83

Let us now turn to `NS(=O)(=O)c1ccc(NC(=S)NC(=O)c2ccc(Cl)cc2Cl)cc1`
12.33
